experiment: binders of probe aHhip on microarray, primary screen, stem cell growth factor project, biochemical, small-molecule microarray, fluorescence 635/667 (AID 1087); settings: higher = more signal;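 also: score merges spot fluorescence at 667nm with spot signal to noise ratio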
metricName: composite z-score
Respond using a number only.

CCOC(=O)C1=NO[C@@]2(C=C(Br)C3(OCCCO3)[C@H]3O[C@H]32)C1; 0.0972

Given the compound CCOC(=O)[C@H](Cc1ccccc1)NC(=O)CCC1CC(OC(=O)NCCc2ccc(F)cc2)CC2(CCCC(COC(=O)NCc3ccccc3)O2)O1 (some centres not stated) , write its reported composite z-score. -0.0994

Given the compound CCOC(=O)[C@H](CC(C)C)NC(=O)CCC1CC(OC(=O)NCCc2ccc(F)cc2)CC2(CCCC(COC(=O)NCCc3ccc(Cl)cc3)O2)O1 (some centres not stated) , write its reported composite z-score. 0.208

====

assay: osmotic lysis modulators in infected erythrocytes, primary screen, PSAC antagonist project, cell-based, P. falciparum Indochina, OD700, 3 h (AID 1156); conditions: called active from +8 up or from −8 down
The source made the active and inactive calls.
Outcome (select one): yes (1) for active, no (0) for inactive

Examples from the recorded data:
CC(C)CON=C1[C@H]2CCn3c(=O)n(Cc4cc5c(cc4Cl)OCO5)c(=O)n3[C@H]2[C@H](O)[C@@H]2O[C@H]12; no (0)
CO[C@H]1COC(=O)[C@H](C)NC(=O)[C@@H](C)COC(=O)[C@H]2CCCN2C(=O)CC=C[C@H]1C; no (0)

Call for entry CC(CCN1CCCCc2nc(C)c(C)cc21)=NO[C@H](C)c1cn([C@H](CO)Cc2ccccc2)nn1 : no (0)

====

target: Dickkopf-related protein 1 (Homo sapiens) (UniProt O94907); assay: DKK1 binders on small-molecule microarrays, primary screen, biochemical, small-molecule microarray, 635 nm fluorescence scan (AID 1106); settings: DKK1 binding, higher = more signal;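 also: score merges emission near 667 nm with signal to noise over three replicate slides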
Sequence (O94907 whole entry, looked up): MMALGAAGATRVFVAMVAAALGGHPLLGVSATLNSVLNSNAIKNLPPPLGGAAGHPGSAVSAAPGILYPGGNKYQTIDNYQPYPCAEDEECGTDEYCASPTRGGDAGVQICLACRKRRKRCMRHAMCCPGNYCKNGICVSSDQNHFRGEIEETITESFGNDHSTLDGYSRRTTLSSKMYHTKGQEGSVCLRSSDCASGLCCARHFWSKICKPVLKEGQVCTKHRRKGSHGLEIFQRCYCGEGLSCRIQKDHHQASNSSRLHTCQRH
Note to self: class labels come from recorded composite z-score, ranges listed here: lower range = under 0.4, middle range = from 0.4 up to 0.6, upper range = 0.6 and over

COc1cccc([C@H]2Oc3ccc(OC)cc3C(=NOC[C@@H](C)[C@H](OCc3ccccc3)C(C)C)[C@@H]2O)c1; lower range
CC(C)(C)N1C(=O)[C@H]2[C@H]3[C@H](O)[C@H](O)CC(=NOCc4ccccc4)[C@H]3CC[C@H]2C1=O; lower range
CC(=O)Nc1ccc([C@@H]2N[C@H](C(=O)O)CC[C@H]2C)cc1; middle range
COC(=O)CC=C[C@@H](C)[C@@H](C=NOCC[C@@H]1C=C[C@H](OC(C)=O)[C@@H](COC(C)=O)O1)OC; middle range
O=C1[C@H]2[C@H]3[C@H](O)[C@H](O)CC(=NOC[C@@H](O)COCc4ccco4)[C@H]3CC[C@H]2C(=O)N1C[C@@H]1CCCO1; upper range
CCN1C(=O)[C@@H]2[C@H]3C(=CC[C@@H]2C1=O)C1(OCCCO1)[C@H]1O[C@H]1[C@H]3O; upper range

Which bin should I file COc1ccc(O[C@H]2C=C[C@@H](c3ccccc3)O[C@@H]2COC(=O)CCC(C)=NO[C@@H]2O[C@H](COC(C)=O)[C@@H](OC(C)=O)[C@H](OC(C)=O)[C@H]2OC(C)=O)cc1 under? lower range

Which bin should I file CCOC(=O)[C@H](CC(C)C)NC(=O)CCC1CC(OC(=O)NCc2ccc3c(c2)OCO3)CC2(CCCC(COC(=O)NCC3CCCCC3)O2)O1 (some centres undefined) under? upper range

Which bin should I file COc1ccc(COC(=O)NN=C2C[C@@H](O)[C@@H](O)[C@@H]3[C@@H]4C(=O)N(C5CCCCC5)C(=O)[C@@H]4CC[C@H]23)cc1 under? lower range

====

test: adipocyte viability effects, profiling panel, cell-based, 3T3-L1 adipocytes, calcein-AM fluorescence, 48 h, basal (AID 1163); conditions: 3T3-L1 adipocytes viability, higher = more signal; also: test concentration not given here
metricName: z-score
Respond using a number only.

CO[C@H]1COC(=O)CC=C[C@H](C)[C@@H](OC)COC(=O)[C@@H](C)COC(=O)CC=C[C@@H]1C; 1.19
O=C(NN=C1C[C@@H](O)[C@@H](O)[C@@H]2[C@@H]3C(=O)N(C[C@@H]4CCCO4)C(=O)[C@@H]3CC[C@H]12)OCc1ccccc1; -0.0428
C=CC[C@@H]1C=C[C@H](ON=C(C)CCC(=O)OC[C@H]2O[C@H](c3ccccc3)C=C[C@@H]2Oc2ccc(OC)cc2)[C@@H](CO)O1; -0.741
CO[C@H]1COC(=O)[C@@H](C)COC(=O)[C@H](C)NC(=O)CC=C[C@H]1C; 0.18
O=C1CCCC=C1C(O)CCCCBr (stereo unspecified); 0.593
C[C@H]1Cc2c(COc3ccccc3)nc3c(c2CO1)CN(CCOc1ccccc1)CC3; 0.175
CCCCC#C[C@@H]1C=C[C@H](Oc2cc(OC)c(OC)c(OC)c2)[C@@H](COC(=O)OCC)O1; -0.931
CON=C[C@@H](C)[C@H](OCc1ccccc1)C(C)C; 0.425
COc1ccc(O[C@H]2C=C[C@@H](c3ccccc3)O[C@@H]2CON=C(C)C)cc1; -0.556
CO[C@H]1COC(=O)CC=C[C@H](C)[C@@H](OC)COC(=O)[C@@H](C)NC(=O)CC=C[C@@H]1C; 0.0797

Given the compound CO[C@@H]1COC(=O)[C@H](CCSC)NC(=O)CC=C[C@@H](C)COC(=O)CCC[C@H]1C , write its reported z-score. -0.304

Given the compound CO[C@H]1COC(=O)CC=C[C@H](C)[C@@H](OC)COC(=O)[C@H](C)COC(=O)CC=C[C@@H]1C , write its reported z-score. -0.376

Given the compound CC(=O)OC[C@H]1O[C@H](C#Cc2ccccc2)C=C[C@@H]1OC(C)=O , write its reported z-score. 0.0552

Given the compound CON=Cc1ccc(C(=O)N2[C@H](c3ccc(C)cc3)[C@@H](C)CC[C@H]2C(=O)OC)cc1 , write its reported z-score. 0.0609

Given the compound CC(C)(C)N1C(=O)[C@H]2[C@H]3[C@H](O)[C@H](O)CC(=NO[C@@H]4O[C@H](CO)[C@@H](O)[C@H](O)[C@H]4O)[C@H]3CC[C@H]2C1=O , write its reported z-score. 1.08

Given the compound CCC1=NOC(CCC2CC(OC(=O)NCc3cccc4c3OCO4)CC3(CCCC(COC(=O)NCCc4ccccc4OC)O3)O2)C1 (stereo unspecified) , write its reported z-score. 0.405

Given the compound CC(C)CON=C1C[C@@H](O)[C@@H](O)[C@@H]2[C@@H]3C(=O)N(c4cccc(Oc5ccccc5)c4)C(=O)[C@@H]3CC[C@@H]12 , write its reported z-score. 0.797

Given the compound O=C1C[C@@H](O)[C@@H](O)[C@@H]2[C@@H]3C(=O)N(Cc4ccc5c(c4)OCO5)C(=O)[C@@H]3CC[C@H]12 , write its reported z-score. 1.46

Given the compound CSCC[C@@H]1NC(=O)CC=C[C@@H](C)COC(=O)[C@@H](C)COC1=O , write its reported z-score. 0.115

Given the compound C=CC[C@@H]1C=C[C@H](ON=C(C)CCC(=O)OC[C@H]2O[C@H](C#Cc3ccccc3)C=C[C@@H]2Oc2ccc(C)cc2)[C@@H](CO)O1 , write its reported z-score. -0.48

Given the compound C[C@H](ON=C1[C@H]2CCn3c(=O)n(-c4ccccc4)c(=O)n3[C@H]2[C@H](O)[C@@H]2O[C@H]12)c1cn([C@H](CO)Cc2ccccc2)nn1 , write its reported z-score. -0.443

Given the compound CC(CCN1CCCCc2nc(C)c(C)cc21)=NOC[C@@H](O)COCc1ccco1 , write its reported z-score. 0.0279

Given the compound C#CCCCON=C1C[C@@H](O)[C@@H](O)[C@@H]2[C@@H]3C(=O)N(CC)C(=O)[C@@H]3CC[C@@H]12 , write its reported z-score. -0.843

Given the compound COCCNC(=O)OCC1CCCC2(CC(OC(=O)NCc3ccc4c(c3)OCO4)CC(CCC(=O)N[C@@H](C)C(=O)OC)O2)O1 (stereo partly specified) , write its reported z-score. -0.0741

Given the compound CO[C@H](C1CCCCC1)[C@H](C)C=CCC(=O)OCCCc1ccccc1 , write its reported z-score. -0.518

Given the compound COC(=O)[C@@H]1CC[C@H](C)[C@@H](c2ccc(C)cc2)N1C(=O)c1ccc(C=NOCC[C@@H]2C=C[C@H](OC(C)=O)[C@@H](COC(C)=O)O2)cc1 , write its reported z-score. 0.556

Given the compound CCc1cc2c(nc1CC)CCN(CCC(C)=NO[C@@H](C)c1cn([C@H](CO)Cc3ccccc3)nn1)C2 , write its reported z-score. 0.367

====

Listed here: items and their measured composite z-score.
target: Pro-neuregulin-1, membrane-bound isoform (Homo sapiens); assay: NRG1 binders on small-molecule microarrays, primary screen, psychiatric disease protein project, biochemical, small-molecule microarray, fluorescence 635/667 (AID 1075); details: NRG1 binding, 635 nm fluorescence, higher = more signal;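 also: score combines 667 nm spot fluorescence with signal to noise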
Respond using a number only.

CCOC(=O)[C@H](CC(C)C)NC(=O)CCC1CC(OC(=O)NCCc2ccc(F)cc2)CC2(CCCC(COC(=O)NCC3CCCCC3)O2)O1 (some centres not stated); 0.301
COC(=O)[C@H](C)NC(=O)CCC1CC(OC(=O)NCc2cccc3ccccc23)CC2(CCCC(COC(=O)NCC(c3ccccc3)c3ccccc3)O2)O1 (some centres not stated); 0.917
COc1ccc(COC(=O)NN=C2C[C@@H](O)[C@@H](O)[C@@H]3[C@@H]4C(=O)N(c5ccc(F)cc5F)C(=O)[C@@H]4CC[C@H]23)cc1; 0.461
C=COC[C@@H]1CN2[C@@H](CC[C@@H](C)[C@@H]2c2ccc(Br)cc2)C(=O)O1; -0.0605
COC(=O)CC=C[C@@H](C)[C@@H](C=NO[C@H](C)c1cn([C@H](CO)Cc2ccccc2)nn1)OC; -0.0545
CO[C@@H]1COC(=O)CC=C[C@@H](C)[C@@H]2C=C[C@H](O)[C@@H](COC(=O)CC=C[C@H]1C)O2; -0.421

Next, consider the following molecule.
Given the molecule CCOC(=O)C1=NO[C@@]2(C=C(Br)C3(OCCCO3)[C@H]3O[C@H]32)C1 , write its reported composite z-score. -0.467
